- Target Desc: CCR2 (Homo sapiens)
- Construct: Membranes were prepared from THP-1 cells; endogenous in cells
- Sequence (P41597 1-360 isoform P41597-2): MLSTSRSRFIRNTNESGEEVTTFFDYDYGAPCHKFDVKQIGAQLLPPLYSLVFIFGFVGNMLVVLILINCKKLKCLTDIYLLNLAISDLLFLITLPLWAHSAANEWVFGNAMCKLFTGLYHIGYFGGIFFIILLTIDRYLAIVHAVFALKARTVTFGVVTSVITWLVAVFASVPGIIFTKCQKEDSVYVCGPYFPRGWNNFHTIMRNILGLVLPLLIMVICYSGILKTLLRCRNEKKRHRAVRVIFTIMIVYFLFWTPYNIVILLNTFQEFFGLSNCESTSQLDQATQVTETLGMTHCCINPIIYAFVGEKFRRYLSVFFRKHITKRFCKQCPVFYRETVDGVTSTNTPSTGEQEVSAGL
- Run Description: CCR2 receptor membrane binding assay ([125I]MCP-1, THP-1 cell membranes, SPA beads)
- Condition Notes: dissociation constant hKi; [125I]MCP-1 binding to THP-1 membranes
Readout Name: Ki (nM)

CO[C@H]1COCC[C@H]1NC1CCN(C(=O)c2ncnc(NC[C@H]3CCC[C@@H](c4ccccc4)C3)c2C)CC1 [Example 275dh] | 3

A: Cc1c(NCc2ccc(Cl)c(F)c2)ncnc1C(=O)N1CCC(N2CCC(N(C)S(C)(=O)=O)CC2)CC1
B: Cc1cccc([C@H]2CC[C@H](CNc3nc(C)nc(C(=O)N4CCC(N5CCC(N(C)S(C)(=O)=O)CC5)CC4)c3C)O2)c1 [Example 159ja]
C: Cc1c(NCc2ccc(C(F)(F)F)cc2F)ncnc1C(=O)N1CCC(N2CCC(O)CC2)CC1
D: Cc1c(NCC2COC(c3ccccc3)C2)ncnc1C(=O)N1CCC(N2CCC(N(C)S(C)(=O)=O)CC2)CC1 (stereo not drawn) [Example 159fb]
E: Cc1c(NCC2CCCN(c3ccc(C(F)(F)F)cc3)C2)ncnc1C(=O)N1CCC(N2CCC(N(C)S(C)(=O)=O)CC2)CC1 (stereo not drawn) [Example 159w]
## Input Order the records, beginning with the lowest Ki and ending with the highest. Answer format: the labels, in the requested order.
## Output E, B, A, D, C

====

- Target Desc: CCR2 (Homo sapiens, UniProt P41597)
- Construct: Membranes were prepared from THP-1 cells; endogenous in cells; host or cells: THP-1 cells (membrane preparation)
- Run Description: CCR2 receptor membrane binding assay ([125I]MCP-1, THP-1 cell membranes, SPA beads)
- Condition Notes: @ 10 μM test compound; THP-1 membranes; read-out: CCR2 % ctrl @ 10 μM
- Description: The above exemplary substances have been tested for binding to CCR2 using a binding assay as outlined herein below: THP-1 cells (human acute monocytic leukaemia cells) were cultured under standardized conditions at 37° C. and 5% CO2 in a humidified incubator. […] Perkin Elmer NEX 332 Jod 125 MCP-1, Stock: 2200 Ci/mmol solved in 2000 μl assay buffer, stored at −20° C. […] Bound radioactivity was determined by scintillation counter after 8 h. […]
Readout Name: remaining activity at 10 µM (%)

Below, 5 molecules whose answers are already recorded.
Cc1c(OCc2ccc(C(C)(C)C)cc2)ncnc1C(=O)N1CCC(N2CCOCC2)CC1 | 17
Cc1c(NCC2CCN(c3ccccc3)C2)ncnc1C(=O)N1CCC(N2CCC(NS(C)(=O)=O)CC2)CC1 (stereo not drawn) | 2
Cc1c(NCc2ccc(C(C)(C)C)cc2)ncnc1C(=O)N1CCC(N2CCC(C(C)(C)C)CC2)CC1 | 5
Cc1c(NCCc2ccc(Cl)c(Cl)c2)ncnc1C(=O)N1CCC(N2CCC(NS(C)(=O)=O)CC2)CC1 | 9
Cc1c(NCc2ccc(C(F)(F)F)c(Cl)c2)ncnc1C(=O)N1CCC(N2CCC(O)CC2)CC1 | 16

P: Cc1c(NC[C@H]2CCC[C@@H](c3ccccc3)C2)ncnc1C(=O)N1CCC(N2CCC(N(C)S(C)(=O)=O)CC2)CC1
Q: CNC(=O)[C@H]1CCCN(C2CCN(C(=O)c3ncnc(NCCc4ccc(Cl)c(Cl)c4)c3C)CC2)C1
R: Cc1c(NCCc2ccc(Cl)c(Cl)c2)ncnc1C(=O)N1CCC(N2CCC[C@H](C(N)=O)C2)CC1
## Input Please produce an ascending ranking of these molecules based on remaining activity at 10 µM. Reply format: the labels, ordered as requested.
## Output P, R, Q
